- Experimental System: Aurora A (Homo sapiens (Human))
- Sequence (O14965 whole entry): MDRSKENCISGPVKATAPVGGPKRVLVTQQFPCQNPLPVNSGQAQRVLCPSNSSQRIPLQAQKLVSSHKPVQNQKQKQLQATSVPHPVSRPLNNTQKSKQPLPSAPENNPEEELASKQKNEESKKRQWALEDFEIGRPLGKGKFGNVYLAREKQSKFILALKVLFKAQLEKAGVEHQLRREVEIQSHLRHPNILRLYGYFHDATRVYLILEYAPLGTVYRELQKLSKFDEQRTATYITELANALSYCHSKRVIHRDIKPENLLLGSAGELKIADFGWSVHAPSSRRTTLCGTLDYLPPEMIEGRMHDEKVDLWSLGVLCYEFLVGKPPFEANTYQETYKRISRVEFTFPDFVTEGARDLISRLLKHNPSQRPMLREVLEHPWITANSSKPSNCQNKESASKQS
- Assay Info: Aurora A degradation assay (western blot)
- Type: cell-based
- Test Settings: protein degradation, IMR32, Huh7 or HL-60 cells; read-out: Aurora A DC50
Recorded Endpoint: DC50 (nM)
Please reply with the bare figure in nM and do not write the unit itself.

GET DC50 where system = Aurora A (Homo sapiens (Human)) and item = CCc1c[nH]c2ncc(-c3cccc(N4CCCN(CCN5CCN(c6ccc(NC7CCC(=O)NC7=O)cc6F)CC5)C4=O)c3)c(Cl)c12 (stereo not drawn)
1.1

GET DC50 where system = Aurora A (Homo sapiens (Human)) and item = O=C1CCC(N2Cc3ccc(N4CCC(CN5CCCN(c6cccc(-c7cnc8[nH]cc(C9CC9)c8c7Cl)c6)C5=O)CC4)cc3C2=O)C(=O)N1 (stereo not drawn)
9

GET DC50 where system = Aurora A (Homo sapiens (Human)) and item = O=C1CCC(N2Cc3ccc(N4CCC(CN5CCCN(c6cccc(-c7cnc8[nH]cc(CC(F)F)c8c7Cl)c6)C5=O)CC4)cc3C2=O)C(=O)N1 (stereo not drawn)
3

GET DC50 where system = Aurora A (Homo sapiens (Human)) and item = CCc1c[nH]c2ncc(-c3cccc(N4CCCN(CCN5CCN(c6cc7c(cc6F)C(=O)N(C6CCC(=O)NC6=O)C7)CC5)C4=O)c3)c(Cl)c12 (stereo not drawn)
5

Taken from patent US20250368640A1.
